Tested on: Fibroblast
Experiment: Multiplex assay against human fibroblast
Assay type: toxicity, cell-based
Conditions: 12 h, 1 µM, compound concentration 1 uM, replicate 2
Readout type: Population Healthy Nuclei (%)

Line notation	Readout number
CCc1cccc(CC)c1NC(=O)c1nn(C)c2c1CCc1cnc(Nc3ccc(N4CCN(C)CC4)cc3OC)nc1-2	18
CCCS(=O)(=O)Nc1ccc(F)c(C(=O)c2c[nH]c3ncc(Cl)cc23)c1F	31
CCOc1cc(C(=O)N2CCC(N3CCN(C)CC3)CC2)ccc1Nc1ncc2c(n1)N(C1CCCC1)c1ccccc1C(=O)N2C	80
CN1CCN(C(=O)C(C)(C)c2ccc(C(=O)Nc3cn4cc(-c5cc(C(C)(C)C)cc(C(C)(C)C)c5)ccc4n3)cc2)CC1	44
O=C1NC(=O)C(c2cnc3ccccn23)=C1c1cn2c3c(cc(F)cc13)CN(C(=O)N1CCCCC1)CC2	87
COC(=N)c1nc2ccc3ncnc(Nc4ccc(OC)cc4F)c3c2s1	34
Cl.O=C(c1ccc(Nc2nccc(-c3cc4ccccc4s3)n2)cc1)N1CCC(N2CCCC2)CC1	32
COc1cc(N2CCN(C)CC2)ccc1Nc1ncc2c(n1)N(C)c1ccccc1C(=O)N2C	82

====

System: HEK-293T
Assay: Multiplex assay against HEK293T
Format: toxicity, cell-based
Settings: human, 12 h, 1 µM, compound concentration 1 uM, replicate 2
Measured Population Hoechst High Intensity Objects (%) by item
Readout type: Population Hoechst High Intensity Objects (%)

Compound	Assay target	Readout unit	Readout number
CNC(=O)c1ccc(Nc2nc(OC3CCCC3)c3c(-c4ccc5nc(C)oc5c4)c[nH]c3n2)c(OC)c1	HEK-293T	%	4
Cl.Oc1ccc2c3c1O[C@H]1c4[nH]c5c(c4C[C@@]4(O)[C@@H](C2)N(CC2CC2)CC[C@]314)C[C@@]1(O)[C@H]2Cc3ccc(O)c4c3[C@@]1(CCN2CC1CC1)[C@H]5O4	HEK-293T	%	5
O=C(Nc1cccnn1)N1CCC(=Cc2cccc(Oc3ccc(C(F)(F)F)cn3)c2)CC1	HEK-293T	%	9
CCn1cc(-c2ccnc3[nH]c(-c4cccc(CN(C)C)c4)cc23)c(-c2ccc(NC(=O)N(C)C)cc2)n1 [GSK-1070916]	HEK-293T	%	2
CN1C2CCC1CC(OC(c1ccc(F)cc1)c1ccc(F)cc1)C2.Cl (configuration not stated)	HEK-293T	%	3
Cl.O=c1c2cccn2c2ccccc2n1CCCN1CCC(c2ccc(Cl)cc2)CC1	HEK-293T	%	5
C=C1/C(=C\C=C2/CCC[C@]3(C)[C@@H]([C@H](C)/C=C/[C@H](C)C(C)C)CC[C@@H]23)C[C@@H](O)C[C@@H]1O [DOXERCALCIFEROL]	HEK-293T	%	2

====

Tested on: Fibroblast
Experiment: Multiplex assay against human fibroblast
Assay type: toxicity, cell-based
Conditions: 12 h, 1 µM, compound concentration 1 uM, replicate 2
Collected Population Hoechst High Intensity Objects (%) values appear next to each entry.
Readout type: Population Hoechst High Intensity Objects (%)

Molecule	Assay target	Readout number
CCc1cccc(CC)c1NC(=O)c1nn(C)c2c1CCc1cnc(Nc3ccc(C(=O)NC4CCN(C)CC4)cc3OC(F)(F)F)nc1-2	Fibroblast	13
COc1cc2ncnc(Nc3ccc(F)c(Cl)c3)c2cc1NC(=O)/C=C/CN1CCCCC1 [DACOMITINIB ANHYDROUS]	Fibroblast	57
CNc1cc(Oc2cc(C(=O)Nc3cc(N4CCN(C)CC4)cc(C(F)(F)F)c3)ccc2C)ncn1	Fibroblast	2
Cl.O=C(c1ccc(Nc2nccc(-c3cc4ccccc4s3)n2)cc1)N1CCC(N2CCCC2)CC1	Fibroblast	36
